Target: T1, P6-AA-12HAA-D
T1 chain: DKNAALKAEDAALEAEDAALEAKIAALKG
Assay: two-hybrid library CCmax;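 further: natural log of median RNA to DNA barcode read ratio; higher means stronger binding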
Settings: mean of both orientations
READOUT_TYPE: interaction score

> print(dat)
                                     binder  value.reported
1  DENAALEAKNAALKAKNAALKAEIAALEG [P5-AA-1HAA-N]           -1.55
2  DENAALEAKSAALKAKSAALKAEIAALEG [P5-AA-12HAA-S]           -1.65
3  DENAALEAKRAALKAKRAALKAEIAALEG [P5-AA-12HAA-R]           -1.88
4  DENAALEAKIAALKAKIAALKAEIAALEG [4H1385-AA]            -1.1
5  DENAALEAKHAALKAKHAALKAEIAALEG [P5-AA-12HAA-H]           -1.53
6  DENAALEAKEAALKAKEAALKAEIAALEG [P5-AA-12HAA-E]           -1.48
